pKi reference
test-system: Muscarinic acetylcholine receptor M2 (Homo sapiens, UniProt P08172)
Sequence (P08172 whole entry): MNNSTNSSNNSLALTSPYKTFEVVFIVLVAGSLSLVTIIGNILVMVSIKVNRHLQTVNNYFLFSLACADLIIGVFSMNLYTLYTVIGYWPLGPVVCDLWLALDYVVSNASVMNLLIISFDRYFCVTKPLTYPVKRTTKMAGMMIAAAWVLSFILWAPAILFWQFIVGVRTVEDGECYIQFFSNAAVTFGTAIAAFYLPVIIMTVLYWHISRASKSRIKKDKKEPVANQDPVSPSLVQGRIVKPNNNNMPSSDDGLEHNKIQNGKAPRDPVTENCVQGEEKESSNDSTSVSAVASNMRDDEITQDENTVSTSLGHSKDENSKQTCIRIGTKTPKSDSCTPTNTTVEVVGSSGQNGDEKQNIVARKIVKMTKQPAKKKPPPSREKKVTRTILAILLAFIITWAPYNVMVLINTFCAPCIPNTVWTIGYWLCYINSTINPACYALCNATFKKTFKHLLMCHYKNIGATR
assay-summary: Inhibition of [3H]-NMS binding to human muscarinic acetylcholine receptor M2 in transfected CHO cells.
Keep it numeric: pKi is minus log10 of the concentration in mol/L.

>>> measurement("CCN(C)C(=O)c1c(C)[nH]c2ccc3c(c12)CN1CCc2cc(OC)ccc2C1O3 (stereo unspecified)")
5.39

Then this molecule:
Given C=CCOC(=O)c1c(C)[nH]c2ccc3c(c12)CN1CCc2cc(OC)ccc2C1O3 (stereo unspecified) , state its recorded pKi.
5.97

###

test-system: Muscarinic acetylcholine receptor M1 (Homo sapiens)
assay-summary: Inhibition of [3H]NMS binding to human muscarinic acetylcholine receptor M1 in transfected CHO cells.
pKi reference
Keep it numeric: pKi is minus log10 of the concentration in mol/L.

Some compounds with known pKi results, for comparison:
>>> measurement("C=CCOC(=O)c1c(C)n(Cc2ccc(OC)cc2)c2ccc3c(c12)CN1CCc2cc(OC)ccc2C1O3 (stereo not given)")
6.70
>>> measurement("COC(=O)c1c(C)n(C)c2ccc3c(c12)CN1CCc2cc(OC)ccc2C1O3 (stereo not given)")
5.93
>>> measurement("CCCc1c(C(=O)OCC)c2c3c(ccc2n1C)OC1c2ccc(OC)cc2CCN1C3 (stereo not given)")
5.88
>>> measurement("COc1ccc2c(c1)CCN1Cc3c(ccc4[nH]c(C)c(Cc5ccccc5)c34)OC21 (stereo not given)")
5.60

Given CCCc1[nH]c2ccc3c(c2c1C(=O)OCC)CN1CCc2cc(OC)ccc2C1O3 (stereo not given) , state its recorded pKi.
5.69

###

Ki reference
test-system: Muscarinic acetylcholine receptor M1 (Homo sapiens, UniProt P11229)
Sequence (P11229 whole entry): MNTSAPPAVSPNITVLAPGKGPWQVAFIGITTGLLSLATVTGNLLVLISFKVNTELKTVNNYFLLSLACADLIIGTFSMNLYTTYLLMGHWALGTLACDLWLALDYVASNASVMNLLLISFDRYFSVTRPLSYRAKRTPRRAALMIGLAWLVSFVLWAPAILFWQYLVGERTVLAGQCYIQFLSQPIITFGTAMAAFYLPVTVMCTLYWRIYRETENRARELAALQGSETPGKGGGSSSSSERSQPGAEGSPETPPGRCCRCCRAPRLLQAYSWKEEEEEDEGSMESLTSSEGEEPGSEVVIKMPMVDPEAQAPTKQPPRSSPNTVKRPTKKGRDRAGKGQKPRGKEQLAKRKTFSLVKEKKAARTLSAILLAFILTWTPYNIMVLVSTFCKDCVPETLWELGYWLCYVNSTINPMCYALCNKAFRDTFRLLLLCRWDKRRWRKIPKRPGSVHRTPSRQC
assay-summary: Inhibition of [3H]NMS binding to human muscarinic acetylcholine receptor M1 in transfected CHO cells.
Your answer should be a plain number; it is taken to be in nM.

Some compounds with known Ki results, for comparison:
>>> measurement("CCCCCCc1[nH]c2ccc3c(c2c1C(=O)OCC)CN1CCc2cc(OC)ccc2C1O3 (stereo unspecified)")
3090
>>> measurement("COc1ccc2c(c1)CCN1Cc3c(ccc4[nH]c(C)c(-c5nc(C)no5)c34)OC21 (stereo unspecified)")
7590
>>> measurement("C=CCOC(=O)c1c(C)[nH]c2ccc3c(c12)CN1CCc2cc(OC)ccc2C1O3 (stereo unspecified)")
1320
>>> measurement("CCCCc1[nH]c2ccc3c(c2c1C(=O)OCC)CN1CCc2cc(OC)ccc2C1O3 (stereo unspecified)")
13200

Then this compound:
Given CCOC(=O)c1c(C)n(C)c2ccc3c(c12)CN1CCc2cc(OC)ccc2C1O3 (stereo unspecified) , state its recorded Ki.
2000

###

test-system: Muscarinic acetylcholine receptor M2 (Homo sapiens, UniProt P08172)
assay-summary: Inhibition of [3H]-NMS binding to human muscarinic acetylcholine receptor M2 in transfected CHO cells.
Assay type: cell-based
endpoint-label: pKi
Keep it numeric: pKi is minus log10 of the concentration in mol/L.

Some compounds with known pKi results, for comparison:
>>> measurement("CCCCCc1[nH]c2ccc3c(c2c1C(=O)OCC)CN1CCc2cc(OC)ccc2C1O3 (stereo not given)")
5.14
>>> measurement("CCCc1c(C(=O)OCC)c2c3c(ccc2n1C)OC1c2ccc(OC)cc2CCN1C3 (stereo not given)")
6.29
>>> measurement("CCOC(=O)c1c(C)[nH]c2ccc3c(c12)CN1CCc2cc(SC)ccc2C1O3 (stereo not given)")
5.66

Then this compound:
So what pKi did COc1ccc2c(c1)CCN1Cc3c(ccc4[nH]c(C)c(-c5nc(C)no5)c34)OC21 (stereo not given) get with Muscarinic acetylcholine receptor M2 (Homo sapiens, UniProt P08172)?
5.66
